Attribution: ChEMBL document CHEMBL5108047

- assay-summary: AUC in CD-1 mouse at 20 mg/kg, po measured upto 24 hrs by reverse phase LCMS analysis
- Type: ADME, organism-based
- Set-up: time < 24 hrs, dose 20 mg/kg, route po
- test-parameters: in vivo
Consider the cut-off 30 µM·h. If the recorded AUC is strictly smaller, the label is condition met; if not, the label is condition not met.

>  <compound>
Cn1cnc(C#CCN(C(=O)Cc2ncc(C(F)(F)F)cc2C(F)(F)F)c2ccc(F)cc2)c1

>  <answer-label>
condition met

$$$$
>  <compound>
Nc1cnc(C#CCN(C(=O)Cc2ncc(C(F)(F)F)cc2C(F)(F)F)c2ccc(F)cc2)cn1

>  <answer-label>
condition not met

$$$$
>  <compound>
Nc1ncc(C#CCN(C(=O)Cc2ncc(C(F)(F)F)cc2C(F)(F)F)c2ccc(F)cc2)cn1

>  <answer-label>
condition met

$$$$
>  <compound>
COc1ccc(C#CCN(C(=O)Cc2ncc(C(F)(F)F)cc2C(F)(F)F)c2ccc(F)cc2)nn1

>  <answer-label>
condition met

$$$$
>  <compound>
O=C(Cc1ncc(C(F)(F)F)cc1C(F)(F)F)N(CC#Cc1cnn(C2CNC2)c1)c1ccc(F)cc1

>  <answer-label>
condition met

$$$$
>  <compound>
CS(=O)(=O)Cn1cc(C#CCN(C(=O)Cc2ncc(C(F)(F)F)cc2C(F)(F)F)c2ccc(F)cc2)cn1

>  <answer-label>
condition not met

$$$$
>  <compound>
Nc1ccc(C#CCN(C(=O)Cc2ncc(C(F)(F)F)cc2C(F)(F)F)c2ccc(F)cc2)nn1

>  <answer-label>
condition not met

$$$$
>  <compound>
O=C(Cc1ncc(C(F)(F)F)cc1C(F)(F)F)N(CC#Cc1ccc(C2CCNC2)cn1)c1ccc(F)cc1 (stereo unspecified)

>  <answer-label>
condition not met

$$$$
>  <compound>
COc1ncc(C#CCN(C(=O)Cc2ncc(C(F)(F)F)cc2C(F)(F)F)c2ccc(F)cc2)cn1

>  <answer-label>
condition met

$$$$
>  <compound>
CC(C(N)=O)n1cc(C#CCN(C(=O)Cc2ncc(C(F)(F)F)cc2C(F)(F)F)c2ccc(F)cc2)cn1 (stereo unspecified)

>  <answer-label>
condition met

$$$$
>  <compound>
Cn1nc(N)cc1C#CCN(C(=O)Cc1ncc(C(F)(F)F)cc1C(F)(F)F)c1ccc(F)cc1

>  <answer-label>
condition not met

$$$$

====

- target-system: DNA polymerase theta (Homo sapiens, UniProt O75417)
- Sequence (O75417 whole entry, the tested form may be a part): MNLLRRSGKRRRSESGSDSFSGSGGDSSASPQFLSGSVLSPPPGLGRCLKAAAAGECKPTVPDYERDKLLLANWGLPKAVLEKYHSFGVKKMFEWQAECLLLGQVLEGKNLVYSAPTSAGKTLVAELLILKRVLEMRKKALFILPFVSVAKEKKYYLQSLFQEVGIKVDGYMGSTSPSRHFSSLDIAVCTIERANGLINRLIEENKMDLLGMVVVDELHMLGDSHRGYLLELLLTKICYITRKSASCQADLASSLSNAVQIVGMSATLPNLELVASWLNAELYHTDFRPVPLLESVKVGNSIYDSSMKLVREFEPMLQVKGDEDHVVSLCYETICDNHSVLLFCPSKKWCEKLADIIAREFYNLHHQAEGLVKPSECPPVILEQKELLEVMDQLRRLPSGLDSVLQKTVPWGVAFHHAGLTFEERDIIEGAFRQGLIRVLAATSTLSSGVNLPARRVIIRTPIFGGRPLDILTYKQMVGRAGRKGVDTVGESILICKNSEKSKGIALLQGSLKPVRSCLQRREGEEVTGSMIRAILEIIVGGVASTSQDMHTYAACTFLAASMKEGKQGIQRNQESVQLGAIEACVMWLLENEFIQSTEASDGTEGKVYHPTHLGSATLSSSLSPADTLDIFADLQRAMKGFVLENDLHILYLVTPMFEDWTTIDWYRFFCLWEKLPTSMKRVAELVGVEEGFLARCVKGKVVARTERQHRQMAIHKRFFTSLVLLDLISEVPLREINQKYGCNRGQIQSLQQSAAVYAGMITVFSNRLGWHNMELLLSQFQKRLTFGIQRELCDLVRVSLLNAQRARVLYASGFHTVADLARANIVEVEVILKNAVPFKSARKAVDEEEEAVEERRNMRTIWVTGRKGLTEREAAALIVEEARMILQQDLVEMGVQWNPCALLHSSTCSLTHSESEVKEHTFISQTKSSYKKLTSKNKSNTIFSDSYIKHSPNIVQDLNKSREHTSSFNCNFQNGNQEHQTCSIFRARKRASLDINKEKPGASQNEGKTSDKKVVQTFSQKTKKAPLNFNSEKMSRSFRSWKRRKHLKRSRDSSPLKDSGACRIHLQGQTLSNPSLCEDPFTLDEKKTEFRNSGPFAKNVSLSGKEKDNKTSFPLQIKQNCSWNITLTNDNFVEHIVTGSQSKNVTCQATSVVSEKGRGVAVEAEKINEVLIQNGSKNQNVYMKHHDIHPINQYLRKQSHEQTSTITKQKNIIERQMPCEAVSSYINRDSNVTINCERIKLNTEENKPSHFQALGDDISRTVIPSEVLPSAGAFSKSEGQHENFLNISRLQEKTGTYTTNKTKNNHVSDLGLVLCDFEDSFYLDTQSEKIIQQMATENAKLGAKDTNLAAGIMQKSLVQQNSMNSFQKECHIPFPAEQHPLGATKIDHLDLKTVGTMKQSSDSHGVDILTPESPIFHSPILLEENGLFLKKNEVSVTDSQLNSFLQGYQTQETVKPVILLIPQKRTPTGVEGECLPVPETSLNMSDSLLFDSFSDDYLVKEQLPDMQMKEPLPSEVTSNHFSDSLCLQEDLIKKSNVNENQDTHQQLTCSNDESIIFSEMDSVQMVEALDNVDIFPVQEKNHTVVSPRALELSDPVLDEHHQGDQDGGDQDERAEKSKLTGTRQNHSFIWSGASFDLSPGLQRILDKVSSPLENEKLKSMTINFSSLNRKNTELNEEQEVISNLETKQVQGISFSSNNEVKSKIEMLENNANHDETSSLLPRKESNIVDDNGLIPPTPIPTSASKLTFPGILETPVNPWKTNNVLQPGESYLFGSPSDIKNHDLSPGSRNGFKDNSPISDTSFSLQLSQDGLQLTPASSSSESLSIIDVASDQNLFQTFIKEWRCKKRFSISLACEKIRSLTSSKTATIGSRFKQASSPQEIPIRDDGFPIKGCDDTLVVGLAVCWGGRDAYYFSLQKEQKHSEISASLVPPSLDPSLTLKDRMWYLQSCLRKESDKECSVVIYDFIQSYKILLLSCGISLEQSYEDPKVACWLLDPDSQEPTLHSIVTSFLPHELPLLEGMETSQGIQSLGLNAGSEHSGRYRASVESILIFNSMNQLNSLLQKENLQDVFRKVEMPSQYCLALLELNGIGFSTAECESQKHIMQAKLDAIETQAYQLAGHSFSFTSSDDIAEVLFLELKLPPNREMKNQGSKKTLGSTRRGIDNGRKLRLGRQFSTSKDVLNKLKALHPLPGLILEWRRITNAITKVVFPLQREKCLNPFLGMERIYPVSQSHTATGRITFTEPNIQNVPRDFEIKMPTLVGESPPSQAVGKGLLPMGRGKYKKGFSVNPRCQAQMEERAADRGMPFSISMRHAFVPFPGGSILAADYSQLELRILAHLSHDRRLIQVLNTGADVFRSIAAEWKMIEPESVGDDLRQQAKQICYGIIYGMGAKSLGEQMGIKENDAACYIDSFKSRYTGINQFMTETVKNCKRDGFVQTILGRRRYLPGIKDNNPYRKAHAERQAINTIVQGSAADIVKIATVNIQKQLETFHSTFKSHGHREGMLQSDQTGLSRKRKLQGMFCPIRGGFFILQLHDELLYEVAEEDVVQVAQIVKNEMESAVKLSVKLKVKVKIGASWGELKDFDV
- assay-summary: Inhibition of human DNA polymerase theta pol domain (1819 to 2590 residues) expressed in Escherichia coli BL21 (DE3) cells preincubated for 15 mins followed by DNA and dNTP addition and measured after 120 mins by Picogreen dye fluorescence intensity analysis
Threshold check on IC50: strictly below 6 nM is Criterion met; on or above 6 nM is Criterion not met.

>  <compound>
O=C(Cc1ncc(C(F)(F)F)cc1C(F)(F)F)N(CC#Cc1ccc(C2CCNC2)cn1)c1ccc(F)cc1 (stereo unspecified)

>  <answer-label>
Criterion met

$$$$
>  <compound>
Nc1ccc(C#CCN(C(=O)Cc2ncc(C(F)(F)F)cc2C(F)(F)F)c2ccc(F)cc2)nn1

>  <answer-label>
Criterion met

$$$$
>  <compound>
CN(C(=O)Cn1nc2c(c1C(F)(F)F)C(C)(C)CC2)c1ccccc1

>  <answer-label>
Criterion not met

$$$$
>  <compound>
O=C(NCC#CCN(C(=O)Cc1ccc(C(F)(F)F)cc1C(F)(F)F)c1ccccc1)c1cccnc1

>  <answer-label>
Criterion met

$$$$
>  <compound>
Nc1ncc(C#CCN(C(=O)Cc2ncc(C(F)(F)F)cc2C(F)(F)F)c2ccc(F)cc2)cn1

>  <answer-label>
Criterion met

$$$$
>  <compound>
Cc1nnc(C(=O)NCC#CCN(C(=O)Cc2ccc(C(F)(F)F)cc2C(F)(F)F)c2ccccc2)o1

>  <answer-label>
Criterion met

$$$$
>  <compound>
CN(C(=O)Cn1nc2c(c1C(F)(F)F)C(=O)NCC2)c1ccccc1

>  <answer-label>
Criterion not met

$$$$
>  <compound>
CN(C(=O)Cc1ccccc1C(F)(F)F)c1ccccc1

>  <answer-label>
Criterion not met

$$$$
>  <compound>
CN(C(=O)Cn1c(C(F)(F)F)cc(C(F)(F)F)cc1=O)c1ccccc1

>  <answer-label>
Criterion not met

$$$$
>  <compound>
CN(C(=O)Cn1nc2c(c1C(F)(F)F)CCC2)c1ccccc1

>  <answer-label>
Criterion not met

$$$$
>  <compound>
Cc1c2c(nn1CC(=O)N(C)c1ccccc1)CCC2

>  <answer-label>
Criterion not met

$$$$
>  <compound>
CN(C(=O)Cc1ccc(C2CC2)cc1C(F)(F)F)c1ccccc1

>  <answer-label>
Criterion not met

$$$$
>  <compound>
CN(C(=O)Cn1nc2c(c1C(F)(F)F)C(O)CC2)c1ccccc1 (stereo unspecified)

>  <answer-label>
Criterion not met

$$$$
>  <compound>
CN(C(=O)Cc1ccc(Cl)cc1C(F)(F)F)c1ccccc1

>  <answer-label>
Criterion not met

$$$$
>  <compound>
CN(C(=O)Cc1ccc(C(F)(F)F)cc1C(F)(F)F)c1cccnc1

>  <answer-label>
Criterion not met

$$$$
>  <compound>
Cn1cncc1C#CCN(C(=O)Cc1ccc(C(F)(F)F)cc1C(F)(F)F)c1ccccc1

>  <answer-label>
Criterion met

$$$$
>  <compound>
CN(C(=O)Cn1nc2c(c1C(F)(F)F)CC(C)(C)C2)c1ccccc1

>  <answer-label>
Criterion not met

$$$$
>  <compound>
O=C(Cc1ccc(C(F)(F)F)cc1C(F)(F)F)N(CC#Cc1ccccn1)c1ccccc1

>  <answer-label>
Criterion met

$$$$
>  <compound>
CN(C(=O)Cc1ccc(C(F)(F)F)cc1C(F)(F)F)c1ccccn1

>  <answer-label>
Criterion not met

$$$$
>  <compound>
CN(C(=O)Cc1ccc(C(F)(F)F)cc1C(F)(F)F)c1ccncc1

>  <answer-label>
Criterion not met

$$$$
>  <compound>
COc1ncc(C#CCN(C(=O)Cc2ncc(C(F)(F)F)cc2C(F)(F)F)c2ccc(F)cc2)cn1

>  <answer-label>
Criterion met

$$$$
